- Method Summary: NCI Yeast Anticancer Drug Screen. Data for the CLN2oe strain (AID 163);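 also: 0% = growth of vehicle-only control cultures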
- Assay Context: S. cerevisiae CLN2oe strain, at 100.0 µM
This is part of a sample that, as a whole, favours compounds with a hit. Of some 79,000 tested, about 15% had one in any assay. Calls of active or inactive are those of the source. Rule as the data show it: active = growth inhibition above about 70%; inactive = the rest.
Assign a class; possible classes are yes = active, no = inactive

Solved entries:
Cc1cc(NCCCCCCCCNc2cc(C)nc3cc(N)ccc23)c2ccc(N)cc2n1	yes
O=[N+]([O-])c1cc(Cl)cnc1Br	no
Cc1nc2ccccc2nc1NNc1ccccc1	no
Cc1cc(O)c(C(C)C)cc1C1(c2cc(C(C)C)c(O)cc2C)OC(=O)c2ccccc21	no
C=C1CC(CCCl)(c2ccccc2)OC1=O (centres undefined)	yes
CCc1c(Cl)c(C)cc(O)c1Cl	yes
COc1ccc(C/C=N/Nc2ccc([N+](=O)[O-])cc2)cc1OC	no
C(=Nc1ccc(-c2cc(-c3ccccc3)nc3ccc4ccccc4c23)cc1)c1ccccc1	no

Data request: Outcome logged for O=C1C=C(Cl)C(=O)C(c2ccc(Cl)cc2)=C1 in this assay:
Data returned: yes

Data request: Try this molecule too: NC(=O)C(=O)NNc1ccccc1
Data returned: yes

Data request: Try this molecule too: COC(=O)CCC(NC(=S)N/N=C(\C)c1ccccn1)C(=O)OC (centres undefined)
Data returned: yes

---

- Method Summary: NCI Yeast Anticancer Drug Screen. Data for the mlh1 rad18 strain (AID 175)
- Assay Context: S. cerevisiae mlh1 rad18 strain growth inhibition; at 50.0 µM
The panel holds about 79,000 compounds, 15% with a hit somewhere; the sample as a whole holds those more often. Activity calls are given as the source filed them. No stated cut-off is given here; in the data, active means growth inhibition above about 70%; inactive means the rest.
Assign a class; possible classes are active, inactive

Solved entries:
Cc1ccc2nc(-c3cccc([N+](=O)[O-])c3)oc(=O)c2c1	inactive
COC1CCC(O)C(/C=C/[N+](=O)[O-])C1 (stereo not given)	active

Data request: Outcome logged for CNC(=O)OCc1c(COC(=O)NC)c(-c2ccc(Cl)cc2)n2c1CCC2 in this assay:
Data returned: active

Data request: Try this molecule too: CCOC(=O)c1[nH]cc(C)c1-c1cccn1-c1ccc(Cl)cc1[N+](=O)[O-]
Data returned: inactive

Data request: Try this molecule too: Nc1nc(N)c2nc(CNc3ccc(C(=O)NC(CCC(=O)O)C(=O)O)cc3F)cnc2n1 (stereo not given)
Data returned: inactive

---

- Method Summary: NCI Yeast Anticancer Drug Screen. Data for the rad50 strain (AID 155);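 also: 0% = growth of vehicle-only cultures of the same strain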
- Assay Context: S. cerevisiae rad50 strain growth inhibition; at 100.0 µM; active compounds read high
About 79,000 compounds went through this panel and 15% of them were active in at least one assay; those are over-represented in the sample as a whole. The source made the active and inactive calls. Cut-off read from the data, not from the text of the source: active = growth inhibition above about 70%; inactive = the rest.
// reported growth inhibition for each item listed

// worked examples, growth inhibition included
CCOC(=O)C1N=[N+](c2ccccc2)C(=O)/C1=C\n1c(=S)[nH]c2ccc([N+](=O)[O-])cc21 (stereo not given)	7% (inactive)
CC[N+]1(C)CCC(O)(c2ccc(OC)cc2)C(C(=O)c2ccc(OC)cc2)C1 (stereo not given)	-30% (inactive)

Data request: Item O=C(Oc1ccc2c(c1)CN(Cc1ccccc1)CO2)c1ccccc1 has what recorded growth inhibition?
Data returned: 32% (inactive)

Data request: Try this compound too: CCOC(=O)CC1(C(=O)OCC)c2[nH]c3ccccc3c2CCN1Cc1ccccc1 (stereo not given)
Data returned: 38% (inactive)

Data request: Try this compound too: Cc1ccccc1N=Cc1cc(Cl)ccc1O
Data returned: 98% (active)

---

- Method Summary: NCI Yeast Anticancer Drug Screen. Data for the CLN2oe strain (AID 163);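 also: 0% = growth of vehicle-only control cultures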
- Assay Context: S. cerevisiae CLN2oe strain, at 11.0 µM, active compounds read high
About 79,000 compounds went through this panel and 15% of them were active in at least one assay; those are over-represented in the sample as a whole.
Please mark Satisfied if the recorded growth inhibition is equal to or greater than 20%, and Not satisfied if it falls below.

Solved entries:
O=C(C[n+]1ccc2ccccc2c1)c1ccc2ccccc2c1	Not satisfied
C[Si](C)(C)/C=C/CCNC(C#N)c1ccccc1 (configuration not stated)	Satisfied
c1ccc2c(OCC3CO3)cccc2c1 (configuration not stated)	Not satisfied
CCO/C(C)=C(/C#N)C(N)=S	Not satisfied
CC(=O)SC(C[N+](=O)[O-])c1ccccc1 (configuration not stated)	Satisfied

Data request: Evaluate C/C(=N\Nc1ccc([N+](=O)[O-])cc1[N+](=O)[O-])c1sc(-n2nc(-c3ccccc3)cc2-c2ccccc2)nc1C : growth inhibition at minimum 20%?
Data returned: Not satisfied

---

- Method Summary: NCI Yeast Anticancer Drug Screen. Data for the mgt1 strain (AID 153)
- Assay Context: S. cerevisiae mgt1 mutant growth inhibition; at 33.0 µM; active compounds read high
About 79,000 compounds went through this panel and 15% of them were active in at least one assay; those are over-represented in the sample as a whole.
// reported growth inhibition for each item listed
Give just the number in %; leave the unit off.

// worked examples, growth inhibition included
c1ccc(-c2cnc3ccccc3c2)cc1	-6
N#CC(C#N)=NNc1ccc(S(=O)(=O)O)cc1	7
COC(=O)CC1CCc2c(ccc3ccccc23)C1(C)C(=O)OC (stereo not drawn)	17
O=C(O)c1cc2ccccc2c2c1C(=O)c1ccccc1-2	95
CCOC(=O)[C@H]1Nc2ccc(OC)cc2C2c3ccccc3CC21 (stereo partly drawn)	28
C=C(C(=C)n1nnc(C(=O)OC)c1C(=O)OC)n1nnc(C(=O)OC)c1C(=O)OC	-1

Data request: Item CCOC(=O)c1[nH]cc(C)c1-c1cccn1-c1ccc(Cl)cc1[N+](=O)[O-] has what recorded growth inhibition?
Data returned: 48

Data request: Try this compound too: CCN(CC)CCNc1ccc2ncn3c4cc(OC)c(OC)c(=O)c4c(O)c1c23
Data returned: 4

Data request: Try this compound too: O=C(O)C1CC(c2ccccc2)=NN1c1ccccc1 (stereo not drawn)
Data returned: -1

Data request: Try this compound too: CCCC/C([O-])=C1/C(=O)N(c2ccccc2)N=C1C.CCCC/C([O-])=C1/C(=O)N(c2ccccc2)N=C1C.[Cu+2]
Data returned: 0

Data request: Try this compound too: COc1ccc(C/C=N/Nc2ccc([N+](=O)[O-])cc2)cc1OC
Data returned: 4

Data request: Try this compound too: CC(C)(C)[Si](C)(C)OCC1CCC(n2cnc3c(NC(=O)c4ccccc4)ncnc32)O1 (stereo not drawn)
Data returned: 0

Data request: Try this compound too: Nc1n[n+]([O-])c2ccc(Cl)cc2[n+]1[O-]
Data returned: 80

---

- Method Summary: NCI Yeast Anticancer Drug Screen. Data for the rad14 strain (AID 159);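 also: 0% = growth of vehicle-treated control cultures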
- Assay Context: S. cerevisiae rad14 strain growth inhibition; at 1.2 µM; active compounds read high
About 79,000 compounds went through this panel and 15% of them were active in at least one assay; those are over-represented in the sample as a whole.
Readout Name: growth inhibition (%)
Give just the number in %; leave the unit off.

// worked examples, growth inhibition included
CCO/C(C)=C(/C#N)C(N)=S	-2
COC(=O)CC1CCc2c(ccc3ccccc23)C1(C)C(=O)OC (configuration not stated)	-2
c1ccc(Cc2cc(-c3ccccc3)n[nH]2)cc1	-3
N/C(=N/N=C/c1cc(Br)cc(Br)c1O)NO	-19
COC(=O)C1(C)CCc2c(ccc3ccccc23)C1=O (configuration not stated)	-1

Data request: Item O=C(NO)Nc1cc(Cl)cc(Cl)c1 has what recorded growth inhibition?
Data returned: 8

Data request: Try this compound too: COc1ccc(/C=C/c2sc3ccccc3[n+]2CCCCI)cc1OC
Data returned: -2

Data request: Try this compound too: CC1SC2(C(=O)Nc3ccc(Cl)cc32)N(c2ccc(Cl)cc2)C1=O (configuration not stated)
Data returned: -3

Data request: Try this compound too: COC(C(O)CO)C(O)C(O)C(=O)NNc1ccccc1 (configuration not stated)
Data returned: 6

Data request: Try this compound too: O=C1Nc2ccccc2/C1=C/c1ccccc1
Data returned: -4

Data request: Try this compound too: CS(=O)(=O)SCc1ccc([N+](=O)[O-])cc1
Data returned: 5

Data request: Try this compound too: CC(=O)OCC1OC2OC(=O)NC2C(OC(C)=O)C1OC(C)=O (configuration not stated)
Data returned: -2

---

- Method Summary: NCI Yeast Anticancer Drug Screen. Data for the rad50 strain (AID 155);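 also: 0% = growth of vehicle-only cultures of the same strain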
- Assay Context: S. cerevisiae rad50 strain growth inhibition; at 50.0 µM (retest, dose inferred, filed as 5.0)
This is part of a sample that, as a whole, favours compounds with a hit. Of some 79,000 tested, about 15% had one in any assay. The source made the active and inactive calls. Cut-off read from the data, not from the text of the source: active = growth inhibition above about 70%; inactive = the rest.
Assign a class; possible classes are YES = active, NO = inactive

O=C1c2ccccc2C(=O)c2cc(CCl)ccc21	NO
Cc1cccc[n+]1C1CCc2c(ccc3ccccc23)C1=O (stereo not given)	NO
Cc1cccc2c1nc1ccc(Cl)cc1[n+]2C	YES

Data request: Outcome logged for Cc1ccc(N=Nc2ccc(O)c(=O)cc2)cc1 in this assay:
Data returned: YES

Data request: Try this compound too: CCCC(=O)Oc1ccc(/C=N/NC(N)=S)nc1
Data returned: NO

Data request: Try this compound too: COC(=O)Nc1cn2ccc(C(Cl)=C(Cl)Cl)cc2n1
Data returned: NO

Data request: Try this compound too: CCOC(=O)/C(=C\c1ccc(C#N)cc1)C(C)=O
Data returned: YES

Data request: Try this compound too: OC1(c2ccccc2)CCCc2ccc(Cl)cc21 (stereo not given)
Data returned: NO

Data request: Try this compound too: O=C(O)CNC(=S)Nc1ccccc1
Data returned: YES
